- Test System: human D2R/β-arrestin (Homo sapiens (Human), UniProt P14416)
- Sequence (P14416 whole entry): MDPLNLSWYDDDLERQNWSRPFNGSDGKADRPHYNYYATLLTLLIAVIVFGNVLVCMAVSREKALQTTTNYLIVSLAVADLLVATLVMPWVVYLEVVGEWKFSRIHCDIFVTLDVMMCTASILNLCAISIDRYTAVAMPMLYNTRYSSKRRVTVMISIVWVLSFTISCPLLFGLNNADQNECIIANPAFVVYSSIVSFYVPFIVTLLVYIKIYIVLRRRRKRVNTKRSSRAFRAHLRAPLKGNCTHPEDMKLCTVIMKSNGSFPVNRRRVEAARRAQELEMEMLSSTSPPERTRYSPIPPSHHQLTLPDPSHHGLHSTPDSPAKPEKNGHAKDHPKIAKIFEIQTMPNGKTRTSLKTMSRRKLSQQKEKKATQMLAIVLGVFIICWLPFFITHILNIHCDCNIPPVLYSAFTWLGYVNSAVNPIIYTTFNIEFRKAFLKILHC
- Experimental Setup: read-out: cAMP Antagonist
Each item that follows carries a reported IC50.

Take a look at these entries with their results.
Inquiry: Reported IC50, compound O=C(NC(c1ccc(Cl)cc1)c1ccccn1)C1CCN(CCOc2ccc3ccc(=O)[nH]c3c2)CC1 (stereo not shown) [Compound 15] : ____
Reply text: > 30000 nM

Inquiry: If you can, please state the reported IC50 value of O=C(NC(c1ccc(Cl)cc1)c1ccccn1)C1CCN(CCOc2ccccc2C(F)(F)F)CC1 (single isomer, unassigned) [Compound 6a] .
Reply text: < 100 nM

Inquiry: Which IC50 is reported for this compound? O=C(NC(c1ccccn1)c1ccccc1F)C1CCN(CCOc2ccccc2)CC1 (stereo not shown) [Compound 28]
Reply text: > 30000 nM

Inquiry: # get_value(readout='IC50', item= O=C(NC(c1ccc(Cl)cc1)c1ccccc1F)C1CCN(CCOc2ccccc2)CC1 (single isomer, unassigned) [Compound 40a] )
Reply text: 100 to 1000 nM

Inquiry: May I ask what IC50 has been recorded for O=C(NC(c1ccccc1)c1ccc(F)cc1)C1CCN(CCOc2ccccc2)CC1 (single isomer, unassigned) [Compound 45b] ?
Reply text: 100 to 1000 nM

Inquiry: For O=C(NC(c1ccc(F)cc1)c1ccccn1)C1CCN(CCOc2ccccc2Cl)CC1 (single isomer, unassigned) [Compound 53b] , what is its reported IC50?
Reply text: 100 to 1000 nM

// moving on: another record for IC50
Inquiry: Bench note: what IC50 did CC1(C(=O)NC(c2ccc(F)cc2)c2ccccn2)CCN(CCOc2ccccc2C(F)(F)F)CC1 (single isomer, unassigned) [Compound 70a] show?
Reply text: < 100 nM

----------
- Test System: human D2R/β-arrestin (Homo sapiens (Human), UniProt P14416)
- Protocol Summary: cell-based
- Experimental Setup: cAMP Antagonist, CHO-K1 cell line expressing human D2R/β-arrestin; quinpirole used as agonist
Collected IC50 values appear next to each entry.

Some solved cases for reference:
Inquiry: Given the entry O=C(NC(c1ccc(F)cc1)c1ccccn1)C1CCN(CCOc2cc(F)ccc2F)CC1 (stereo not drawn) [Compound 57] , report its measured IC50.
Reply text: > 30 µM

Inquiry: Given Fc1ccc(F)c(OCCN2CCC(CNC(c3ccc(Cl)cc3)c3ccccn3)CC2)c1 (single isomer, unassigned) [Compound 89b] , state its recorded IC50.
Reply text: 10 to 30 µM

Attention now shifts to the item below.
Inquiry: What measured IC50 goes with FC(F)(F)c1ccccc1OCCN1CCC(CNC(c2ccc(Cl)cc2)c2ccccn2)CC1 (stereo not drawn) [Compound 120] ?
Reply text: < 0.1 µM

----------
- Tested on: plasma protein
- Protocol Summary: Plasma protein binding, mouse
- Type: in vitro ADME
- Experimental Setup: plasma, read-out: Plasma Protein Binding % bound
Value Type: fraction unbound
Just the number, please.

Inquiry: For O=C(NC(c1ccc(Cl)cc1)c1ccccn1)C1CCN(CCOc2ccc(F)cc2)CC1 (stereo not shown) [Compound 5] , what is its reported fraction unbound?
Reply text: 0.021

Inquiry: Consider the compound shown here: O=C(NC(c1cccc(F)c1)c1ccccn1)C1CCN(CCOc2ccccc2)CC1 (stereo not shown) [Compound 26] What is its recorded fraction unbound?
Reply text: 0.057

Inquiry: Sample O=C(NC(c1ccc(F)cc1)c1ccccn1)C1CCN(CCOc2ccccc2C(F)(F)F)CC1 (stereo not shown) [Compound 52] — what was its fraction unbound?
Reply text: 0.009

Inquiry: Return reported fraction unbound; argument: O=C(NC(c1ccccc1)c1ccc(F)cc1)C1CCN(CCOc2ccccc2)CC1 (stereo not shown) [Compound 45]
Reply text: 0.015

Inquiry: Need fraction unbound of O=C(NC(c1ccc(F)cc1)c1ccccn1)C1CCN(CCOc2ccccc2)CC1 (stereo not shown) [Compound 25] , thanks.
Reply text: 0.047

Further cases:
Inquiry: # get_value(readout='fraction unbound', item= O=C(NC(c1ccc(C(F)(F)F)cc1)c1ccccn1)C1CCN(CCOc2ccccc2)CC1 (stereo not shown) [Compound 31] )
Reply text: 0.026

Inquiry: Consider the compound shown here: O=C(NC(c1ccc(Cl)cc1)c1cccc(F)c1)C1CCN(CCOc2ccccc2)CC1 (stereo not shown) [Compound 41] What is its recorded fraction unbound?
Reply text: 0.006

Inquiry: Dear colleague, I am looking for the recorded fraction unbound of the following compound: O=C(NC(c1ccc(Cl)cc1)c1ccccn1)C1CCN(CCOc2cccc(C(F)(F)F)c2)CC1 (stereo not shown) [Compound 7]
Reply text: 0.004
